Molecular target: Nuclear receptor subfamily 1 group I member 3 (Homo sapiens)
Sequence (Q14994 whole entry): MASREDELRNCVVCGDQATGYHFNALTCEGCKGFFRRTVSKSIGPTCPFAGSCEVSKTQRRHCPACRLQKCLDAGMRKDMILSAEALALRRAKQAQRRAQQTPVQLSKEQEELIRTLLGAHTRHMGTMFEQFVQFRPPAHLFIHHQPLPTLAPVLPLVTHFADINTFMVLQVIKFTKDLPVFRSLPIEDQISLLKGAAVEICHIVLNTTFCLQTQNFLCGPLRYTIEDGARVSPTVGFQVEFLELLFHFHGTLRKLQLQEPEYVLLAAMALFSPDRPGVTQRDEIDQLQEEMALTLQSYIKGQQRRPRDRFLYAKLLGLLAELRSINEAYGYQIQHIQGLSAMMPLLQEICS
Test: Agonist activity at human constitutive androstane receptor expressed in HepG2 cells co-expressing CYP2B6 incubated for 23 hrs by One-Glo luciferase reporter gene assay
Format: cell-based
pEC50: −log10 of the molar value.
measuredMetric: pEC50

Reference set (2 entries):
smilesNotation	valueReported
Clc1cccc(-c2nc3sccn3c2CNCCc2ccc(Cl)c(Cl)c2)c1	6.03
CN(CCc1ccc(Cl)c(Cl)c1)Cc1c(-c2ccc(Cl)cc2)nc2sccn12	5.96

1. Clc1ccc(-c2nc3ncccn3c2CNCCc2ccc(Cl)c(Cl)c2)cc1
2. Clc1ccc(CCNCc2c(-c3ccc4ccccc4c3)nc3sccn23)cc1Cl
Request: Just curious, which one has the larger pEC50 reading, 1 or 2 ? Answer = label.
Result: 1
(1: 6.04, 2: 5.82)
